biological target: Peroxisome proliferator-activated receptor delta (Homo sapiens); assay: qHTS assay for small molecule antagonists of peroxisome proliferator-activated receptor delta signaling (AID 588535); conditions: HEK293T PPARd-UAS-bla, beta-lactamase FRET ratio, 18 h; series mostly up to 76.7 µM
Inconclusive results are not listed. Active and inactive are the calls of the source. Calls come from the whole dose curve; as a rule, active = well fitted inhibition curve with a large enough effect in the signal ratio, with a control signal flat (not every such curve was filed as active); inconclusive = small, poorly fitted or top-dose-only effect, or effect the other way, or a change in a side signal; inactive = no such curve, though single readings can be large or run the other way; the % refers to the signal ratio.
test_readout: outcome

>  <molecule>
O=C1CCC(N2C(=O)c3ccccc3C2=O)C(=O)N1 (centres undefined)

>  <test_readout>
outcome

>  <observed>
inactive

$$$$
>  <molecule>
C[C@]12CCC(=O)C=C1CC[C@@H]1[C@@H]2[C@@H](O)C[C@@]2(C)[C@H]1CC[C@]2(O)C(=O)CO

>  <test_readout>
outcome

>  <observed>
inactive

$$$$
>  <molecule>
O=c1[nH]cnc2[nH]ncc12

>  <test_readout>
outcome

>  <observed>
inactive

$$$$
>  <molecule>
NC[C@H](O)c1ccc(O)c(O)c1

>  <test_readout>
outcome

>  <observed>
inactive

$$$$

---

assay: Quantitative High-Throughput drug screen in 47 multiple myeloma cell lines against the NCATS MIPE library collection: KMS28PE_JCRB cell viability assay (AID 1918983); conditions: KMS28PE multiple myeloma viability, CellTiter-Glo ATP, 48 h; series mostly up to 45.8 µM; note: nearly all actives have a fitted effect of over 35% in size
Results filed as inconclusive are left out. Active and inactive are the calls of the source. The call rests on the fitted dose curve; in most records, active means well fitted cell-killing curve with a large enough effect; inconclusive means small, poorly fitted or top-dose-only effect, or effect the other way; inactive means no such curve, though single readings can be large or run the other way.
Possible outcomes: active, inactive

>  <compound>
NC(=O)C1CCCc2c1[nH]c1ccc(Cl)cc21 (stereo not given)

>  <answer_label>
inactive

$$$$
>  <compound>
C[C@]12CC[C@H](O)CC1=CC[C@@H]1[C@H]2CC[C@]2(C)C(c3cccnc3)=CC[C@H]12

>  <answer_label>
inactive

$$$$
>  <compound>
O=C1CCc2cc(OCCCCc3nnnn3C3CCCCC3)ccc2N1

>  <answer_label>
inactive

$$$$
>  <compound>
Cc1n[nH]c(C)c1Cc1sc2c(c1C(=O)N1C[C@H](O)CO1)c(=O)n(C)c(=O)n2CC(C)C

>  <answer_label>
active

$$$$
>  <compound>
COc1cc2nccc(Oc3ccc(NC(=O)NC4CC4)c(Cl)c3)c2cc1C(N)=O

>  <answer_label>
active

$$$$

---

assay: qHTS of pediatric cancer cell lines to identify multiple opportunities for drug repurposing: Primary screen for BT-12 cells (AID 1347101); details: BT-12 viability, CellTiter-Glo luminescence, 48 h; series mostly up to 57.3 µM; note: nearly all actives have a fitted effect of over 25% in size
Results filed as inconclusive are left out. Calls of active or inactive are those of the source. Calls come from the whole dose curve; as a rule, active = well fitted cell-killing curve with a large enough effect; inconclusive = small, poorly fitted or top-dose-only effect; inactive = flat fitted curve, though single readings scatter.
Possible outcomes: active, inactive

>  <compound>
NS(=O)(=O)c1cc2c(cc1Cl)NC=NS2(=O)=O

>  <answer_label>
inactive

$$$$
>  <compound>
CC(c1cc2ccccc2s1)N(O)C(N)=O (stereo unspecified)

>  <answer_label>
inactive

$$$$
>  <compound>
COCCNCCCn1c(C(=O)CF)c(-c2ccc(C)cc2)c2c(N)ncnc21

>  <answer_label>
inactive

$$$$
>  <compound>
CC(C)C[C@H](NC(=O)[C@@H](O)[C@H](N)Cc1ccccc1)C(=O)O

>  <answer_label>
active

$$$$
>  <compound>
NC(=O)c1ccc(I)c([N+](=O)[O-])c1

>  <answer_label>
inactive

$$$$
>  <compound>
NCCc1ccc(O)c(O)c1

>  <answer_label>
inactive

$$$$
>  <compound>
CN(C)c1ccc(C2Nc3ccc4ccccc4c3C3=C2C(=O)CC(C)(C)C3)cc1Br (stereo unspecified)

>  <answer_label>
inactive

$$$$
>  <compound>
COc1ccc2c3n(c(=NC(=O)c4cccnc4)nc2c1OC)CCN3

>  <answer_label>
inactive

$$$$
>  <compound>
CC(C)OC(=O)C1=CN(C(=O)c2ccc(F)c(F)c2)CC(C)(C)c2c1[nH]c1ccccc21

>  <answer_label>
inactive

$$$$
>  <compound>
Cc1[nH]c(=O)c(C#N)cc1-c1ccncc1

>  <answer_label>
inactive

$$$$
>  <compound>
NC(=O)c1ccc(-c2nc(-c3ccc4c(c3)OCCO4)c(-c3ccccn3)[nH]2)cc1

>  <answer_label>
inactive

$$$$
>  <compound>
Nc1ccc(S(=O)(=O)Nc2ccnn2-c2ccccc2)cc1

>  <answer_label>
inactive

$$$$
>  <compound>
CCn1c(-c2nonc2N)nc2cnc(Oc3cccc(NC(=O)c4ccc(OCCN5CCOCC5)cc4)c3)cc21

>  <answer_label>
active

$$$$
>  <compound>
Cc1[nH]c(=O)c(C#N)cc1-c1ccc2nccn2c1

>  <answer_label>
inactive

$$$$
>  <compound>
CCCn1c(=O)c2[nH]c(C34CC5CC3C[C@@H](C5)C4)nc2n(CCC)c1=O

>  <answer_label>
inactive

$$$$
>  <compound>
O=C(Nc1nc2ccccc2n1CCN1CCOCC1)c1cccc([N+](=O)[O-])c1

>  <answer_label>
active

$$$$
>  <compound>
CN(C(=O)c1ccc(F)cc1C(F)(F)F)C1CCN(c2nnc(-c3ccnn3C)c3ccccc23)CC1

>  <answer_label>
active

$$$$
>  <compound>
CNCc1ccc(-c2[nH]c3cc(F)cc4c3c2CCNC4=O)cc1

>  <answer_label>
inactive

$$$$
>  <compound>
CCn1cc(C(=O)O)c(=O)c2cc(F)c(N3CCNC(C)C3)c(F)c21 (stereo unspecified)

>  <answer_label>
inactive

$$$$
>  <compound>
CCCc1nc2c(C)cc(-c3nc4ccccc4n3C)cc2n1Cc1ccc(-c2ccccc2C(=O)O)cc1

>  <answer_label>
inactive

$$$$
>  <compound>
N[C@@H]1CONC1=O

>  <answer_label>
inactive

$$$$
>  <compound>
N#CC[C@H](C1CCCC1)n1cc(-c2ncnc3[nH]ccc23)cn1

>  <answer_label>
inactive

$$$$
>  <compound>
C[C@H](NC(=O)Cc1cc(F)cc(F)c1)C(=O)N[C@@H]1C(=O)N(C)c2ccccc2-c2ccccc21

>  <answer_label>
inactive

$$$$
>  <compound>
COc1nc(-c2ccc3c(c2)OCO3)n(-c2ccc(NC(=O)CSc3ccccc3)cc2)n1

>  <answer_label>
inactive

$$$$
>  <compound>
COc1cc2nccc(Oc3ccc(NC(=O)NC4CC4)c(Cl)c3)c2cc1C(N)=O

>  <answer_label>
active

$$$$
>  <compound>
CC(C)(C)NCC(O)c1ccc(O)c(CO)c1 (stereo unspecified)

>  <answer_label>
inactive

$$$$
>  <compound>
CCOC(=O)C1=C[C@]2(CC)CCCN3CCc4c(n1c1ccccc41)[C@@H]32

>  <answer_label>
inactive

$$$$
>  <compound>
COc1ccc(C2=N[C@H](c3ccc(Cl)cc3)[C@H](c3ccc(Cl)cc3)N2C(=O)N2CCNC(=O)C2)c(OC(C)C)c1

>  <answer_label>
active

$$$$
>  <compound>
O=c1n(CCCN2CCN(c3cccc(Cl)c3)CC2)nc2ccccn12

>  <answer_label>
inactive

$$$$
>  <compound>
CCOc1cc(C(=O)Nc2ccc(Cl)c(-c3nc4ccccc4[nH]3)c2)cc(OCC)c1OCC

>  <answer_label>
inactive

$$$$
>  <compound>
CN(C)C(=O)c1ccc(S(=O)(=O)c2ccc(NC(=O)[C@@](C)(O)C(F)(F)F)c(Cl)c2)cc1

>  <answer_label>
active

$$$$
>  <compound>
CN[C@@H](C)C(=O)N[C@H]1CCCC[C@H]2CC[C@@H](C(=O)N[C@@H](c3ccccc3)c3cn(CCCCc4ccc(CCCCn5cc([C@@H](NC(=O)[C@@H]6CC[C@@H]7CCCC[C@H](NC(=O)[C@H](C)NC)C(=O)N76)c6ccccc6)nn5)cc4)nn3)N2C1=O

>  <answer_label>
active

$$$$
>  <compound>
COCC(=O)NCC=Cc1ccc2ncnc(Nc3ccc(Oc4ccc(C)nc4)c(C)c3)c2c1

>  <answer_label>
active

$$$$
>  <compound>
CCCCNc1cc(C(=O)O)cc(S(N)(=O)=O)c1Oc1ccccc1

>  <answer_label>
inactive

$$$$
>  <compound>
CCc1ccc(CCOc2ccc(CC3SC(=O)NC3=O)cc2)nc1 (stereo unspecified)

>  <answer_label>
inactive

$$$$
>  <compound>
O=NN(CCCl)C(=O)NCCCl

>  <answer_label>
inactive

$$$$
>  <compound>
Clc1cccc(Cl)c1NC1=NCCN1

>  <answer_label>
inactive

$$$$
>  <compound>
CCN(CC)CCCC(C)Nc1nc(C)cc(Nc2ccc3nc(C)cc(N)c3c2)n1 (stereo unspecified)

>  <answer_label>
inactive

$$$$
>  <compound>
NC(N)=NC(=O)c1nc(Cl)c(N)nc1N

>  <answer_label>
inactive

$$$$
>  <compound>
NC(=O)c1cnccn1

>  <answer_label>
inactive

$$$$
>  <compound>
Cc1ccnc(NS(=O)(=O)c2ccc(NC(=O)Nc3ccc(S(=O)(=O)Nc4nccc(C)n4)cc3)cc2)n1

>  <answer_label>
active

$$$$
